test: soluble on expression in E. coli; label from the status in PepcDB or PDB records
parameter: soluble on expression in E. coli

MGSDKIHHHHHHMTKKKIGIGFGTWAWGNKLVWDYKAETDDILLKKTFFDAINGGLDLIDSADSYGTGSLFGQSEKLIGDFLEELPKRKLKKVTIATKLAPFPWRIGRNGLDNAFQESNQRLKGNMTRVQLHWSTYRYAPWQEEQLLNGLGDLYEEGLIKEIGLSNTGPKRLNFLFQKLKKRGIKIKSIQMQLSLLTKPSLEDENIKIICDENEIEYLAYSPLGLGILTVPPNQSPKPTTFLRKSLYQRILPKTIELRTLLTHIGKKYSASQAEVALNWVRSHGAKPIVGIRNPNQAKDAISALNWSLTKSEKQKLDFCRNACLANMPLNPFTSP = not soluble
MGSDKIHHHHHHMIKRNAAKPVRVAPPMMEEQEVSTSTLQELLEKEETVSNLIFSKGREEGISKSYKSFKNCTFRNQTFSECKFRSSQLADIRFENCDLSNISFAESSLYRVEFIACKLLGTNLSETTMNHVLLHDCNASYINLAMSKMNQVRFSHCHFRNGSFNDCRFSSVAFDSCDLVEADFSHAPLRGIDLRTSRIGGITLNISDLKGAVITSLQAMDLLPLLGVIIED = not soluble

---

test: soluble on expression in E. coli; label from the status in PepcDB or PDB records
parameter: soluble on expression in E. coli

MTNHIEYKKNQIIASSEIDDLIFMSAPQEWSLEEQKEIQDKLVREAFHFHYNRNEKYRNYCISQHINENLHSIDEIPVFPTSIFKHMKFHTVSMGDIENWHTSSGTQGIKSCIARDRLSIERLLGSVNFGMKYVGNWFEHQMELVNLGPDRFSASNVWFKYVMSLVELLYPTVFTVNNDKIDFEETVNHLYRINNSNKDICLIGPPFFVSLLCQYMKENNIEFKGENRLHVITGGGWKSNENSSLNRQDFNQLIMDTFQLDNVNQIRDTFNQVELNTCFFEDEFQRKHVPPWVYARALDPETLKPVADGELGLLSYMDASSTAYPAFIVTDDIGIVREIREPDPYPGVTVEIVRRLNTRAQKGCALSMASFIQSTILEHHHHHH = not soluble
MLVAPFASQLPFVEETLHSSYQALQWGKNIFAIAHKTLSARLLNTVFPTEERTQPLSPELQAWLKERYEALLQQDWQDAAAGFYPATLLFDAPWEEFLRFYPLLLLDLPQMWQRARSRQFQEFAHNVRLEDYPQYYRQNFHYQTDGYLSDTSANLYDIQVELLFGGTADAMRRRVIAPIAQQVVAHPPTPPLRILDVACGTGRTLKQLRYAFPGAVLFGLDLSPAYLRKANALLATQTGALPQLIQGNAESLPYVDSYFSAITCVFLFHELPAPVRQNVIHECARVLQPGGIFVICDSIQSLDSPEQRPMMENFANLFHEPFYRNYIEDDLNLRLEKAGLVVKEVQHHFMSKYWVAVKPSLEHHHHHH = not soluble

---

assay: soluble on expression in E. coli; label from the status in PepcDB or PDB records
parameter: soluble on expression in E. coli

MILIRLEPGMDLMEEMRAAFSEGVVVTGIGSLHRVRIRTADESELTVEGPLEILSLQGTISPDGVHIHIAVADSEGRVTGGHLRGDSPVRTTAEIAVIPYQGVLRRVMDRRTGYRELLVLE = not soluble
MGSDKIHHHHHHMKFTINRTLFIEKLEKASATVDVKNPMPALQGVLLDCNSKGMILMGSDGTETVTLVTRFNVNSGDCTEPGKVLFAAAPVLKTIKKFKSEFIGLEHKNNELKIVESKKKQFSFCTMDHEEYPEIKIEAGEDWISLSQEQFVSMANGTLHAIPAMDTRKILTGVNLKSVDDKFFSIATDAHRLARLHFDCTKITIAKDGEVVLPIKSLKTALKLFNRETNLQLKLISDTQLLIRGESIIYQSRLLAGTYPDTARMVPDEFKSEIQLSREEFKNTLEQLSAFSSLIVLTSEGKESIHLKPQNSQVGTASVEIPCNQVEAFTLACNVEYLLQALQTITSETIAIKMISNQRPIVVVGAEDTTHSNLQLILPVRV = not soluble
RDIKDLIVALDIGTSKVVAVVAEILPEGRFEVLGLGQHESRGMRKGVVVNIETTVNSIQRALEEAELMADCKIRDVYAGIAGSHIRSFNSSGMVAVKDKEVTATDVARVIETAKAVNIPTDQ = not soluble

---

experiment: soluble on expression in E. coli; label from the status in PepcDB or PDB records
parameter: soluble on expression in E. coli

MAGDPMIIYRQYHHEGAPVYEIITKTFQHVSIKCDDSFSDTEIFKLLSLLQDDIDHMKVSLEHHHHHH = not soluble
MGSDKIHHHHHHMTTLTFQSTTLSAIHQNNQIWLTVTEIGKALGYSDPFKSVKNIYDRHADEFTPQMTALIDMRTNGGIQKVRIFSLRGAHLIGMLSHTKVAKDFRRWVLDILDREAQQPKQLALPQPEKTYTVPLTEYRNCHLKTRVFLVHSTSYCPFLSNKKALTWRAWGWLGLFISLACICLDKIHRRE = not soluble
MEERLNRVKQQLQQSSYKLTPQREATVRVLIENEKDHLSAEDVYLKVKDKAPEIGLATVYRTLELLAELKVVDKINFGDGVARFDLRKEGAKHFHHHLVCMECGRVDEIDEDLLPEVENRVENEFNFKILDHRLTFHGVCETCQAKGKG = not soluble

---

test: soluble on expression in E. coli; label from the status in PepcDB or PDB records
parameter: soluble on expression in E. coli

Example results:
GSHMSPKIVDAGTATVPHTMSTMKTADNRPASVYLKKDKPTLIKFWASWCPLCLSELGQAEKWAQDAKFSSANLITVASPGFLHEKKDGEFQKWYAGLNYPKLPVVTDNGGTIAQNLNISVYPSWALIGKDGDVQRIVKGSINEAQALALIRNPNADLGSLKHS = soluble
MGRSHHHHHHGSLVPRGSEQGSNVNHLIKVTDQSITEGYDDSDGIIKAHDAENLIYDVTFEVDDKVKSGDTMTVNIDKNTVPSDLTDSFAIPKIKDNSGEIIATGTYDNTNKQITYTFTDYVDKYENIKAHLKLTSYIDKSKVPNNNTKLDVEYKTALSSVNKTITVEYQKPNENRTANLQSMFTNIDTKNHTVEQTIYINPLRYSAKETNVNISGNGDEGSTIIDDSTIIKVYKVGDNQNLPDSNRIYDYSEYEDVTNDDYAQLGNNNDVNINFGNIDSPYIIKVISKYDPNKDDYTTIQQTVTMQTTINEYTGEFRTASYDNTIAFSTSSGQGQGDLPPEK = soluble
MGSDKIHHHHHHMSHLALQPGFDFQQAGKEVLEIEREGLAELDQYINQHFTLACEKMFNCTGKVVVMGMGKSGHIGRKMAATFASTGTSSFFVHPGEAAHGDLGMVTPQDVVIAISNSGESSEIAALIPVLKRLHVPLICITGRPESSMARAADVHLCVKVPKEACPLGLAPTSSTTATLVMGDALAVALLKARGFTAEDFALSHPGGALGRKLLLRVSDIMHTGDEIPHVNKHATLRDALLEITRKNLGMTVICDESMKIDGIFTDGDLRRVFDMGGDMRQLGIAEVMTPGGIRVRPGILAVDALNLMQSRHITSVLVADGDQLLGVLHMHDLLRAGVV = not soluble
MGSDKIHHHHHHMENIMLQEIELKLAISPQIGIELPQYLAKFTILEHQNLFLGNTYYDYPDHFLAKQKMGLRIRQEDQELTLTLKTNGKVVSGLHSRPEYNLPLIEKETPTNAQLRGLYPFEQLPSSTLQPIFSTDFNRTFWLVEFQQSKIEVAFDQGKIIAGEYEQPISEIEFELKSGNVQDLFDFVETLPFERDIYFSSASKAKRGYLLGSKQFLTDWLNKWRDFLKEEREESAVDFCAKFNAVLKMEQKLLEETLSFSPTLFSQDFMKTVERVGAFFNLYHYYDENGKILEAMATEKQKETRLPALLESNQKIFVEIRDLIRFHSETKDNEKTIEKLTALLKSRVYFERMIKLMELSYDLG = not soluble

# input Item SLSMKLLIADDEDTIRNGIAKYIKLHTDRFSQIYLAENGQQALDIILQYQPDMMLLDVQMPLKTGLEVLQEAQKLSLVPKTIILSGYDDFEYARKALRYGAKDYLLKPCRSSEILEAINKLVQEQLGTKEG has what recorded soluble on expression in E. coli?
# output not soluble

---

assay: soluble on expression in E. coli; label from the status in PepcDB or PDB records
parameter: soluble on expression in E. coli

SLVYDSNNNLIADLGAEKRESISSDSIPMKLVNAVTSIEDHRFFKHRGVDIYRIIGAAWSNLLHKSTQGGSTLDQQLIKLAYFSTKESDQTLKRKAQEVWLSLQMEKKYTKEEILTFYVNKVYMGNGNYGMRTAAKSYYGKDLKDLSIAQLATLAGIPQAPTQYDPYAQP = not soluble
MGSDKIHHHHHHMNKHFTFTINSICLDENYHPSDKTRITTNFANLARGSHRQANLRNALKMIDNSFNALAHWDNPKGDRYSVELEIISVNLDIDGSGQTFPSIEVLKTNIVDHKTNKRIEGIVGNNFSSYVRDYDFSVLLAEHNKGQAKFSIPDDFGGLHGKLFQSFVNSDAYKQNFNKPPVICLSVSDNKTYHRIENQHPVLGVEYQPNESSLTEQYFKKMGLQVRYFMPPNSVAPLAFYFFGDLLNDYTHLELISTISTMGTFQKIYRPEIYNANAVAGKCYQPNLKNLDHSLTQIVYDRAERSQLANEQGKFAAEHFIKPYQTFFEQWPANYL = not soluble
